Catalogue of pIC50 values
Test system: KO-52 cells
Experiment: Proliferation assay, spheroid-like growth, KO-52 (MLL wildtype control cell line)
Format: cell-based, human
Conditions: Homo sapiens, 192 h, KO-52 control cells, 8 days, confluence as measure of spheroid size; read-out: spheroid assay_OneTime KO-52 IC50
pIC50: −log10 of the molar value.
test_readout: pIC50

[[record]]
molecule = "CC(C)[C@H]([C@H]1C[C@@H](N2CCC3(CCO3)CC2)C1)N1CC2(CCN(c3ncnnc3Oc3ccc(F)cc3-c3cncnc3C3CC3)C2)C1 (single isomer, unassigned)"
endpoint_result = 5.74

[[record]]
molecule = "CC(C)[C@H]([C@H]1C[C@@H](N2CCC[C@H](C(=O)N(C)C)C2)C1)N1CC2(CCN(c3ncnnc3Oc3ccc(F)cc3-c3cncnc3C3CC3)C2)C1 (single isomer, unassigned)"
endpoint_result = 4.84

